- test_description: self-splicing fitness, log relative to wild type (ln ratio); higher = more splicing; Tetrahymena group I intron in knt gene, E. coli kanamycin selection, DiMSum; sequences stand for … in CUCUCU…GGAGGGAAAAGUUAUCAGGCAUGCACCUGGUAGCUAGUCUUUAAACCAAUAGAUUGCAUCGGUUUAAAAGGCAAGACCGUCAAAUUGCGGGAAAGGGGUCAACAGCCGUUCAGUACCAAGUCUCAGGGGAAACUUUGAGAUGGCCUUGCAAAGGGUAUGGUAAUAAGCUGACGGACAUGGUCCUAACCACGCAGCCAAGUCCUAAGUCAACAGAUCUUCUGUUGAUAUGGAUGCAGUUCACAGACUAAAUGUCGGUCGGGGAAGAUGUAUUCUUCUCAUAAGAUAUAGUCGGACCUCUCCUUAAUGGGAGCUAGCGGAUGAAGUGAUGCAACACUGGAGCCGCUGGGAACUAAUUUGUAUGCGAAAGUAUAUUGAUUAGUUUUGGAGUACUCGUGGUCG;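 note: selection with 25 µg/mL kanamycin versus none on LB agar overnight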
- assay_setup: 37 °C
Kindly supply the reported self-splicing fitness (ln) values for the records listed here.
Answer with a number only.

Qu. Would you kindly share the measured self-splicing fitness (ln) for `ACUGAGCAAUAUUACGUCUA` ?
Ans. -2.44

Qu. Please answer likewise for `GAGUAGCAAUAUUACGCUUU`
Ans. -1.39

Qu. Try `AGUCAGCAAUAUUACGCGAU` next.
Ans. -1.01

Qu. Now consider `AAGCAGCAAUAUUACGGAUU` and answer again.
Ans. -0.000157

Qu. Field entry: `UCCGAGCAAUAUUACGAGUA`
Ans. -1.1

Qu. // same read-out, input: `UAUAAGCAAUAUUACGAGCG`
Ans. -0.062

Qu. Next record, please: `AUGUAGCAAUAUUACGCGUU`
Ans. -1.99

Qu. How about `AGUAAGCAAUAUUACGGUCG` ?
Ans. -0.559

Qu. How about this sequence: `AGUAAGCAAUAUUACGUCGU`
Ans. -0.496

Qu. Same thing, different sequence: `CUAAAGCAAUAUUACGAAGU`
Ans. -2.57

Qu. How about `CCGCAGCAAUAUUACGAUCG` ?
Ans. 0.186

Qu. Another sequence: `ACUGAGCAAUAUUACGUGGC`
Ans. -1.79

Qu. Can you handle `UCAUAGCAAUAUUACGAAGA` next?
Ans. -1.56

Qu. Same lookup for `GUAAAGCAAUAUUACGUCUA` , please.
Ans. 0.0339

Qu. Follow-up item: `CGGGAGCAAUAUUACGGAGG`
Ans. -3.12

Qu. And then `CACUAGCAAUAUUACGACCG` , what is it?
Ans. 0.573
